# experiment: qHTS Assay for Lipid Storage Modulators in Drosophila S3 Cells
# applied_conditions: BODIPY lipid droplet fluorescence, 18-24 h, cells fed with added oleic acid; series mostly up to 46.1 µM
Screen size: about 320,000 compounds; about 2,100 (0.66%) were called active. Another 53% or so got no clear call; they are omitted. Calls come from the whole dose curve; as a rule, active = well fitted inhibition curve with a large enough effect in the signal ratio, with a control signal flat (not every such curve was filed as active); inconclusive = small, poorly fitted or top-dose-only effect, or effect the other way, or a change in a side signal; inactive = flat fitted curve, though single readings scatter; the % refers to the signal ratio. The entries come from a sample that favours actives as a whole.
Classes used: active, inactive

> print(dat)
                                    compound     class
 1  CC(=O)Nc1ccc(S(=O)(=O)N2CCN(CC3CC4C=CC3C4)CC2)cc1 (stereo not given)  inactive
 2  O=C(Nc1ccc(N2CCOCC2)cc1)C1CCCN(S(=O)(=O)c2cccc(C(F)(F)F)c2)C1 (stereo not given)  inactive
 3  COc1ccc(S(=O)(=O)c2c(O)c3ccc(C(=O)Nc4ccc(F)cc4)cc3[nH]c2=O)cc1  inactive
 4        CCOC(=O)Cn1nc(C)c([N+](=O)[O-])c1C  inactive
 5  COc1cccc(CNC(=O)COC(=O)c2nc(Cl)c(Cl)c(Cl)c2Cl)c1    active
 6  CCC(=O)Nc1ccc(NC(=O)CSc2nc3cc4c(cc3cc2C)CCC4)cc1  inactive
 7  Cc1ccc(S(=O)(=O)c2c(O)c3ccc(C(=O)O)cc3[nH]c2=O)cc1    active
 8  O=C(COC(=O)c1nc(Cl)c(Cl)c(Cl)c1Cl)NCc1ccccc1  inactive
 9    COc1ccc(/C=C/C(=O)N2CCNC(=O)C2)c(OC)c1  inactive
10         CCOC(=O)c1cc(C(=O)NN)c(=O)[nH]c1C  inactive

###

Listed compounds paired with reported cell number change
# experiment: qHTS Assay for Lipid Storage Modulators in Drosophila S3 Cells;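 for cell number change: cells counted by Cell Tracker Red CMTPX staining in the red channel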
# applied_conditions: BODIPY lipid droplet fluorescence, 18-24 h, cells fed with added oleic acid; measured here: cell count max response
The campaign covered roughly 320,000 compounds. About 2,100 (0.66%) were called active. About 53% were inconclusive and are not listed. The list comes from a sample in which actives are over-represented; it also holds close analogues and randomly drawn compounds.
measure_name: cell number change (%)

> print(dat)
                                    compound  measurement.units  recorded.measurement
 1  COc1ccc(C(c2nnnn2C(C)(C)C)N2CCN(C(=O)c3ccco3)CC2)cc1 (centres undefined)                  %                  15.4
 2          COC(=O)c1cc2c(=O)c3ccccc3oc2nc1C                  %                  21.3
 3  COc1ccc(NC(=O)C2C3C=CC4(O3)C2C(=O)N(CCN2CCCCC2C)C4C(=O)NC2CCCC(C)C2C)cc1 (centres undefined)                  %                 -11.9
 4      Cc1ccc(C(=O)C[n+]2cccc(C(N)=O)c2)cc1                  %                  8.69
 5             Cc1nc(N)nc(Nc2ccc(Cl)cc2)c1Br                  %                  17.2
 6                  CC(=O)NCCOC(=O)Nc1ccncc1                  %                 -23.8
 7  O=C(Nc1cccc(NC(=O)c2ccc(Br)o2)c1)c1ccccc1                  %                 -12.9
 8  Cc1ccccc1-n1ncc2c1CC(C)(C)CC2NC(=O)CCN1CCCCC1=O (centres undefined)                  %                 -9.29
 9          CCc1ccc(NC2=CC(=O)CC(C)(C)C2)cc1                  %                 -10.8
10  COc1cccc(NC(=O)C2C3C=CC4(O3)C2C(=O)N(CCCN2CCCC(C)C2)C4C(=O)NC2CCCCC2C)c1 (centres undefined)                  %                  -4.5
11  COc1ccc(Cl)cc1NC(=O)C1CCCN(S(=O)(=O)c2cccc3nonc23)C1 (centres undefined)                  %                  8.35
12        CN(C)c1ccc(/C=N/NC(=O)c2ccnn2C)cc1                  %                 -10.8
13       COc1ccc(CSc2nnc(CNS(C)(=O)=O)o2)cc1                  %                  8.09
14   CN(CC(=O)OCC(N)=O)S(=O)(=O)c1ccc(Cl)cc1                  %                 -16.4
15  Cc1ccc(C(C)C)c(OCC(=O)NNC(=O)C(C(C)C)N2C(=O)c3ccccc3C2=O)c1 (centres undefined)                  %                 -20.9
16  Cn1c2ccccc2c(=O)c2c(=O)n(-c3ccccc3)c(-c3ccc(C(C)(C)C)cc3)nc21                  %                  8.74
17  NS(=O)(=O)c1ccc(CCNC(=O)C(=O)NCC2OCCN2S(=O)(=O)c2ccc(Cl)cc2)cc1 (centres undefined)                  %                 -8.07
18  COc1ccc(NC(=O)C2CCN(S(=O)(=O)c3cccc4cccnc34)CC2)cc1OC                  %                 -22.5
19  CC1(C)CC(=O)C=C(Nc2ccc(S(N)(=O)=O)cc2)C1                  %                  5.75
20  CCOC(=O)CSc1nc2ccccc2c(=O)n1CC1CCCO1 (centres undefined)                  %                 0.196
21   Cn1cnnc1Sc1ccc(C(F)(F)F)cc1[N+](=O)[O-]                  %                  20.3
22  COc1cccc(NC(=O)C2C3C=CC4(O3)C2C(=O)N(CCCN2CCCCC2)C4C(=O)NC2CCCCC2)c1 (centres undefined)                  %                  1.59
23  CCOC(=O)C(NC(=O)c1ccc(F)cc1)(Nc1nnc(C)s1)C(F)(F)F (centres undefined)                  %                  2.37
24  CC(C)c1ccc(NC(=O)C2C3C=CC4(O3)C2C(=O)N(CCCN2CCCCC2)C4C(=O)NC2CCCCC2)cc1 (centres undefined)                  %                   2.7
25  COCCn1nnnc1C(c1ccc(OC)cc1)N1CCN(C(=O)c2ccco2)CC1 (centres undefined)                  %                  10.8
26                  O=C(Nc1ccncc1)OCc1ccccc1                  %                   -15
27  Cc1ccc(C(C[N+](=O)[O-])n2nc(C)cc2C)cc1 (centres undefined)                  %                  28.9
28  COC(=O)C(C(=O)OC)C(C[N+](=O)[O-])c1ccc(OC)cc1 (centres undefined)                  %                 -3.46
29  CCOc1ccc(NC(=O)CN(C)C(=O)COc2cccc3c2OC(C)(C)C3)cc1OCC                  %                 -24.3
30  Cc1[nH]n(-c2ccccc2)c(=O)c1N=Nc1ccc2c(c1)OCO2                  %                 -5.87
31  CCOCCCNC(=O)C1CCCN1C(=O)Nc1ccccc1[N+](=O)[O-] (centres undefined)                  %                  3.63
32  CC(Oc1ccccc1)c1nnc(N)s1 (centres undefined)                  %                  14.9
33  O=C(N1CCCCC1)C12CC3CC(C1)CC(C(=O)N1CCCCC1)(C3)C2                  %                     5
34              Cc1ccccc1Nc1nccc(N(C)C)c1C#N                  %                 -17.6
35  COc1ccc(NC(=O)C2CCCN2C(=O)NCc2ccccc2)c(OC)c1 (centres undefined)                  %                 -2.72
36  COc1ccc(NC(=O)C2CCCN2C(=O)NCc2ccccc2)cc1OC (centres undefined)                  %                  1.64
37                   Brc1ccccc1OCCCN1CCCCCC1                  %                  5.41
38  COc1ccc(C)cc1NC(=O)C1CCN(S(=O)(=O)c2cccc3nonc23)CC1                  %                  15.9
39  CCOC(=O)c1ccc(NC(=O)Cn2nnc(-c3ccc(F)cc3)n2)cc1                  %                 -3.44
40  COc1ccc(NC(=O)C2C3C=CC4(O3)C2C(=O)N(CCCN2CCCCC2)C4C(=O)NC2CCCC(C)C2C)cc1 (centres undefined)                  %                  20.6
41   O=C(Nc1ccc(Cl)c(Cl)c1)OCCNC(=O)c1ccncc1                  %                  19.3
42      Cn1nccc1C(=O)N/N=C/c1c(O)ccc2ccccc12                  %                 -2.67
43  O=C(NCc1ccccc1)C1CCCN1C(=O)Nc1ccccc1[N+](=O)[O-] (centres undefined)                  %                  14.7
44           COC(=O)c1ccc(COc2ccc(C=O)cc2)o1                  %                  -4.2
